# assayed system: TDP-43 (Homo sapiens, UniProt Q13148 1-414)
# Sequence (Q13148 whole entry): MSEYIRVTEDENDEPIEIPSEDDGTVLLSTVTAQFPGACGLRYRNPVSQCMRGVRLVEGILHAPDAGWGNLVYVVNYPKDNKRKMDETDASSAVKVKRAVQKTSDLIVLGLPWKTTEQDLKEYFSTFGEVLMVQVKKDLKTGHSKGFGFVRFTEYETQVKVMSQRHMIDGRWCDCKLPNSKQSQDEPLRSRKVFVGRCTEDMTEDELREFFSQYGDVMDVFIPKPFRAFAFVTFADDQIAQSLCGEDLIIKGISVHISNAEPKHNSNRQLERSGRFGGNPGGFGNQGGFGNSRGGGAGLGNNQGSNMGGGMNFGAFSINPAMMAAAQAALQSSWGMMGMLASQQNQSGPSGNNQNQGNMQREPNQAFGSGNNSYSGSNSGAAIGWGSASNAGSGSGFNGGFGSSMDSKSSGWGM
# test protocol: RNA Bind-n-Seq with designed 260-mer pool; 25 mM Tris-HCl, 150 mM KCl, 3 mM MgCl2, BSA (printed 500 mg/mL), 20 units/mL SUPERase IN; pH not stated; 500 nM RNA pool, 1 h, 4 C; TDP-43 5, 50, 500 nM; high values mean tight binding
# reported conditions: protein: recombinant; tags: SBP (GST cleaved off with PreScission; pGEX-GST-SBP)
Whole data set: some 9,900 sequences, median “r (bound/input frequency ratio)” near 0.7, cut for the highest 2% near 6.5. Only a selection was taken, and the highest values are over-represented in it overall.
experimental readout: binding signal

[[record]]
binder = "ENSMUSG00000035279.61|Ssc5d|92:97;148:152;163:167 (ssRNA) RNA: GGGAGUUCUACAGUCCGACGAUCGCUUCGAUAUCCGCAUGCUAUAAAGAGGCUAGCAGAGGUGGCCUGGCCCCCCAGCACUCCUGUGCCCAUGACCACCACCACAGAGGAGGAGGAGAGGCCUCUGAGGGGAGAACACACACCCACUCUGAAAUUCACGGUGCUUAAGAUACUCUUAAACAAAAGCCAACCAUACUACAAUCGAACACACGGUGUUGUUACUGGGGAGCAGGGGCUCUGGAGGGACAGAAUUACAAUGCUGAUCCUAACUUGUCAAUGCCAUCUGUGAUGGCGUUGGAGAUCACUCUUGCGGUCGCACUAGUGUGGAAUUCUCGGGUGUCAAGG"
experimental_readout = "binding signal"
experimental_value = "0.434 R (bound/input frequency ratio)"

[[record]]
binder = "ENSMUSG00000034801.23|Sos2 (ssRNA) RNA: GGGAGUUCUACAGUCCGACGAUCGCUUCGAUAUCCGCAUGCUAGAUUCCACGCAGCUGUCACUUGCUCAGCUCCAGUCACAGCAGCCUUGCUCAUCUUCCAGCUCCUCCUGUCCCACCAAGGCAGAAUUCAAGCCCUCUCUUACCAAAGCUGCCACCAAAGACUUACAAACGGGAGCUUUCCCACCCGCCACUGUAUAGACUGCCUCUGCUGGAAAAUGCAGAAACUCCUCAAUGACCUUGGCCAUAUGUAGUCAUUGACACUGGAAUAGUAUUUGUAAAGGUUUUUAAUUUAUUCAAAAAGACUCUUGCGGUCGCACUAGUGUGGAAUUCUCGGGUGUCAAGG"
experimental_readout = "binding signal"
experimental_value = "0.462 R (bound/input frequency ratio)"

